# testedTarget: human SGLT2 (Homo sapiens, UniProt P31639)
# Sequence (P31639 1-672): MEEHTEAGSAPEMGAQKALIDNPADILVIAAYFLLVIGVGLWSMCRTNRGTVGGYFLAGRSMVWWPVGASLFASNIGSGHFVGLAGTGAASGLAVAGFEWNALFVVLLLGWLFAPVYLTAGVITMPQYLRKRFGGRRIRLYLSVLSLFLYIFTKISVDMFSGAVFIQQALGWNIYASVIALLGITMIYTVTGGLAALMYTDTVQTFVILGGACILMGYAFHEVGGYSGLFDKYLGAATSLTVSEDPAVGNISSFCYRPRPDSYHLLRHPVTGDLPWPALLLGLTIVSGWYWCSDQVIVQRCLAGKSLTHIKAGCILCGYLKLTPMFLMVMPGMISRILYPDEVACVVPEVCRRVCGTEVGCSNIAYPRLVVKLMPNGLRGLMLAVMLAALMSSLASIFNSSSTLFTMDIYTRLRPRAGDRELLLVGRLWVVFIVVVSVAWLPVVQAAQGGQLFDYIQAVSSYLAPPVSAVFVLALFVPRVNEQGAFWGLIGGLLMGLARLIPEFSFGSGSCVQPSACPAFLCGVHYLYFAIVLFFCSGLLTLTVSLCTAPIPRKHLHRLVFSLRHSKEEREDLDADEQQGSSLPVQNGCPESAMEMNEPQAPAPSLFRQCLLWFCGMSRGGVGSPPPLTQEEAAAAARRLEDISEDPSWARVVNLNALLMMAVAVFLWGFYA
# testName: SGLT2 assay: Na-dependent 14C-AMG uptake in CHO-K1 cells stably expressing human SGLT2
# conditionNotes: average if tested more than once
endpointLabel: IC50 (nM)

molecule: Cc1cc(O)c([C@@H]2O[C@H](CC#N)[C@@H](F)[C@H](O)[C@H]2O)cc1Cc1cc2ccccc2s1 [Compound 23]
endpointLabel: IC50
measured: 69
--
molecule: COc1cc(O)c([C@@H]2O[C@H](CO)[C@@H](F)[C@H](O)[C@H]2O)cc1Cc1cc2ccccc2s1 [Compound 2]
endpointLabel: IC50
measured: 8
--
molecule: [2H]C([2H])(c1ccc2c(c1)OCCO2)c1cc([C@@H]2O[C@H](CO)[C@@H](F)[C@H](O)[C@H]2O)c(OC)c2c1OCC2 [Compound 163]
endpointLabel: IC50
measured: 8
--
molecule: Cc1cc(O)c([C@@H]2O[C@H](CO)[C@@H](F)[C@H](O)[C@H]2O)cc1Cc1cc2c(s1)CCN(C(=O)C1CCCC1)C2 [Compound 86]
endpointLabel: IC50
measured: 38
--
molecule: COc1cc(Cl)c([C@@H]2O[C@H](CO)[C@@H](F)[C@H](O)[C@H]2O)cc1Cc1cc2ccccc2s1 [Compound 21]
endpointLabel: IC50
measured: 112
--
molecule: COc1c(Cc2ccc3c(c2)CC3)cc([C@@H]2O[C@H](CO)[C@@H](F)[C@H](O)[C@H]2O)c2c1CCO2 [Compound 152]
endpointLabel: IC50
measured: 6
--
molecule: Cc1cc(O)c([C@@H]2O[C@H](CN)[C@@H](F)[C@H](O)[C@H]2O)cc1Cc1cc2ccccc2s1 [Compound 24]
endpointLabel: IC50
measured: 332
--
molecule: Cc1cnc(N2CCc3sc(Cc4cc([C@@H]5O[C@H](CO)[C@@H](F)[C@H](O)[C@H]5O)c(O)cc4C)cc3C2)s1 [Compound 111]
endpointLabel: IC50
measured: 19
--
molecule: COc1cc(C)c(Cc2cc3c(s2)CCN(C(=O)N2CCCC2)C3)cc1[C@@H]1O[C@H](CO)[C@@H](F)[C@H](O)[C@H]1O [Compound 81]
endpointLabel: IC50
measured: 11
--
molecule: OC[C@H]1O[C@@H](c2cc(Cc3ccc4c(c3)OCCO4)c(Cl)c3c2CCO3)[C@H](O)[C@@H](O)[C@@H]1F [Compound 154]
endpointLabel: IC50
measured: 2
--
molecule: COc1cc(O)c([C@@H]2O[C@H](CO)[C@@H](F)[C@H](O)[C@H]2O)cc1Cc1cc2c(s1)CCN(C(C)=O)C2 [Compound 79]
endpointLabel: IC50
measured: 137
--
molecule: COc1c(Cc2ccc3c(c2)OCCO3)cc([C@@H]2O[C@H](CO)[C@@H](F)[C@H](O)[C@H]2O)c2c1CCO2 [Compound 101]
endpointLabel: IC50
measured: 7
--
molecule: OC[C@H]1O[C@@H](c2cc(Cc3cc4ccccc4s3)c3c(c2O)CCO3)[C@H](O)[C@@H](O)[C@@H]1F [Compound 59]
endpointLabel: IC50
measured: 9
